Experiment: Toxicity liver stage against HepG2, at 10uM
Type: cell-based
Design: test concentration 10 uM, cell line HepG2-A16-CD81EGFP
Conditions: human, HepG2-A16-CD81EGFP cells; read-out: INHIBITION
quantity-measured: cytotoxicity at 10 µM
Lab note: write values as number then unit, every time.

Let me know recorded cytotoxicity at 10 µM for CCNC(=O)NC(=O)CNc1cccc(C(=O)c2ccccc2)c1 , thanks. 3.18%

Let me know recorded cytotoxicity at 10 µM for Cc1csc(CNc2cnc3c(c2)c(C)nn3C)n1 , thanks. 0.739%

Let me know recorded cytotoxicity at 10 µM for Cn1cc(C(=O)N2CCCC(c3ccncc3)C2)cn1 (stereo not drawn) , thanks. -13%

Let me know recorded cytotoxicity at 10 µM for CC1(C)[C@H](Cc2cc(CN3CCOCC3)on2)C[C@@H]1NC(=O)C1CCC1 , thanks. -6.67%

Let me know recorded cytotoxicity at 10 µM for CCCN(CCC)S(=O)(=O)N(C)Cc1ccncc1 , thanks. 12.2%

Let me know recorded cytotoxicity at 10 µM for CN1CCN(C(=O)c2nnc3ccc(Cl)cc3n2)CC1 , thanks. 6.28%

Let me know recorded cytotoxicity at 10 µM for CN(C)C(=O)c1cc2c(s1)CCN(C(=O)CCCN1CCCCC1)C2 , thanks. -41.4%

Let me know recorded cytotoxicity at 10 µM for CSCCCn1ccnc1-c1cccc(C#N)c1 , thanks. -13.3%

Let me know recorded cytotoxicity at 10 µM for Cc1ncc(CN(C)CC2CCCN2c2cccnn2)s1 (stereo not drawn) , thanks. 4.19%

Let me know recorded cytotoxicity at 10 µM for COC(=O)CN1CCSC(c2ccccc2)C1 (stereo not drawn) , thanks. 17.8%

Let me know recorded cytotoxicity at 10 µM for Cc1cc(COc2ccc(OC3CCCCNC3=O)cc2)on1 (stereo not drawn) , thanks. 13.4%

Let me know recorded cytotoxicity at 10 µM for C1CC(NCc2nnc(C3CC3)o2)CN(Cc2noc(C3CC3)n2)C1 (stereo not drawn) , thanks. -19%

Let me know recorded cytotoxicity at 10 µM for Cc1nn(C)c(C)c1C1CCCN1C(=O)CCCNc1ncccn1 (stereo not drawn) , thanks. -3.43%

Let me know recorded cytotoxicity at 10 µM for CCCc1n[nH]c(C2CN(C(=O)CCn3ccccc3=O)CCO2)n1 (stereo not drawn) , thanks. -0.438%

Let me know recorded cytotoxicity at 10 µM for Cc1c(S(=O)(=O)N(CCc2ccccc2)Cc2ccn(C)n2)cnn1C , thanks. 3.82%

Let me know recorded cytotoxicity at 10 µM for COc1ncccc1C(=O)N1CCCC1c1nc(-c2ccccc2)n[nH]1 (stereo not drawn) , thanks. -8.76%

Let me know recorded cytotoxicity at 10 µM for Cc1nccc([C@@H]2C[C@@H]3CCN(Cc4c(C)noc4C)C[C@H]3O2)n1 , thanks. -76.9%

Let me know recorded cytotoxicity at 10 µM for COCc1cc(N(C)CCC(O)c2ccccc2)n2nccc2n1 (stereo not drawn) , thanks. -2.49%

Let me know recorded cytotoxicity at 10 µM for Cc1nc(N2CCOCC2)nc2c1CN(CC(=O)N(C)C)CC2 , thanks. -101%

Let me know recorded cytotoxicity at 10 µM for c1cncc(-c2noc(CNc3ncnc4c3CCNCC4)n2)c1 , thanks. 3.18%

Let me know recorded cytotoxicity at 10 µM for CN(Cc1cc(C(C)(C)C)n[nH]1)C(=O)CCC(=O)NC1CCCC1 , thanks. -2.12%

Let me know recorded cytotoxicity at 10 µM for CSCC(=O)N1CCCC1c1noc(C2CC2)n1 (stereo not drawn) , thanks. 17%

Let me know recorded cytotoxicity at 10 µM for Fc1ccc2nc([C@H]3CCNC3)[nH]c2c1 , thanks. 9.21%

Let me know recorded cytotoxicity at 10 µM for O=C(CCCn1ccnc1)NC1CCCN(c2ccccc2Cl)C1 (stereo not drawn) , thanks. 4.86%

Let me know recorded cytotoxicity at 10 µM for O=C(O)CCn1nc(C(F)(F)F)c(Cl)c1C1CC1 , thanks. 8.63%

Let me know recorded cytotoxicity at 10 µM for Cc1ccc(-c2nc(CN3CCn4c(C)nnc4C3)co2)cc1 , thanks. -8.03%

Let me know recorded cytotoxicity at 10 µM for COc1ccccc1CN1CC[C@H](c2nnc(-c3cncn3C)o2)C1 , thanks. 8.33%

Let me know recorded cytotoxicity at 10 µM for CC(C)=CCCC1(C)CCC(=O)N(CCc2nc(N)cc(O)n2)C1 (stereo not drawn) , thanks. 0.361%

Let me know recorded cytotoxicity at 10 µM for CN1CSC[C@H]1C(=O)N1CCC(CCc2ccccc2)CC1 , thanks. 3.23%

Let me know recorded cytotoxicity at 10 µM for CS(=O)(=O)N1CC[C@H]2O[C@H](C(=O)NCc3cccnc3)CC[C@H]21 , thanks. -7.24%

Let me know recorded cytotoxicity at 10 µM for CC(C)(C)c1cc(CN2CC[C@@H](NC(=O)c3cccnc3)[C@H](O)C2)n[nH]1 , thanks. -13.2%

Let me know recorded cytotoxicity at 10 µM for COCCO[C@H]1COCCN(C2CCN(C)CC2)C1 , thanks. 3.08%

Let me know recorded cytotoxicity at 10 µM for CC(C)c1nc2c(n1C)CCN(CC(=O)NCc1ccccn1)C2 , thanks. -8.52%

Let me know recorded cytotoxicity at 10 µM for Cc1nc(C)n(C2CCCN(C(=O)c3csc(CC(C)C)n3)C2)n1 (stereo not drawn) , thanks. -17.3%

Let me know recorded cytotoxicity at 10 µM for Cc1cnn(CC2CCCCN2Cc2c(C)noc2C)c1 (stereo not drawn) , thanks. -11.2%

Let me know recorded cytotoxicity at 10 µM for COc1ccc(S(=O)(=O)N2CCn3nc(C)nc3C2)cc1C , thanks. 9.68%

Let me know recorded cytotoxicity at 10 µM for O=C1NCCO[C@H]2CN(C(=O)CC3Cc4ccccc4C3)CC[C@@H]12 , thanks. -106%

Let me know recorded cytotoxicity at 10 µM for CC(C)C(=O)NC1COC2(CCN(Cc3cccnc3)CC2)C1 (stereo not drawn) , thanks. 2.11%
